# Assay target: T1, XPF (truncated);ERCC1 (truncated) (human;human, UniProt Q92889;P07992 640-916;93-297, |)
# T1 sequence 1: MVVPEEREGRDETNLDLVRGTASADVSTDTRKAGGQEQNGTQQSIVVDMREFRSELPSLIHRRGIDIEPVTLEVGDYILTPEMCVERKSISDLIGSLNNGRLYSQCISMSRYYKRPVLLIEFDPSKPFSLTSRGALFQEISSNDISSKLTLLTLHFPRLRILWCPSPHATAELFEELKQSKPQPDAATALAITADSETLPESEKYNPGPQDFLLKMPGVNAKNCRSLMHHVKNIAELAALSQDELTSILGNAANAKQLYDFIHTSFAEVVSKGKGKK
# T1 sequence 2: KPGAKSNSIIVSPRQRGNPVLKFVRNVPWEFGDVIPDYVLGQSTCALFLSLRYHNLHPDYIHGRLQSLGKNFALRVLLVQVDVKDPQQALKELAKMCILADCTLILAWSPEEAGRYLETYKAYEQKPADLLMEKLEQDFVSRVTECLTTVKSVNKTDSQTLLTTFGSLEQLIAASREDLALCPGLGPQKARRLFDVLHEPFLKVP
# Experiment summary: fluorescence anisotropy; mwPIFE, room temp, 30 min: BamHI 10 mM Tris-HCl pH 8, 100 mM KCl, 0.02% Triton X-100, 0.1 mg/ml BSA, 5 mM EDTA/MgCl2/CaCl2; Ku 35 mM Tris-Cl pH 7.9, 5.5% glycerol, 150 mM KCl, 1 mM EDTA, 0.1 mM DTT, 1.5 mM imidazole; XPF/ERCC1 10 mM Tris-Cl pH 8, 10 mM NaCl. FA: 10 mM Tris-HCl pH 8, 10 mM NaCl, 10% glycerol, 1 mM TCEP, 50 nM DNA, 25 C
# Measurement setup: protein: recombinant;recombinant; tags: none;GST-His6 N-terminal, removed by TEV; copies: 1;1; hairpin
Assay readout: pKd
// pKd: -log10(molar conc.)

input: Output measured pKd for this item: CAGCGCTCGGTTTTTTTTTTTTTTTTTTTTCCGAGCGCTG (structured_DNA) [HP (stem-loop)]
output: 6.19
